Biological target: human Mac-1 (integrin αMβ2, CD11b/CD18) (human, UniProt P11215 17-1152; P05107 23-769)
Experiment: flow cytometry, HEK293/Mac-1 cells, PBS/MnCl2 (Mn2+), 10 µg/ml of this antibody; binding of reporter mAb KIM127 read
Measured Endpoint: KIM127 (Expression relative to IgG4)

Look up KIM127 (Expression relative to IgG4) for this binder: anti-Mac-1 antibody clone 24H01 (antibody, human IgG4, V domains shown) VH: EVQLVESGGGLVQPGGSLRLSCAASGFTFNNYYMSWVRQAPGKGLEWVSIIYYDGSEADYADSVKGRFTISRDNSKNTLYLQMNSLRAEDTAVYYCARNKDIYSVYGMDYWGQGTLVTVSS VL: DIQMTQSPSSLSASVGDRVTITCRASQSISNYLAWYQQKPGKAPKLLIYATSNLQSGVPSRFSGSGSGTDFTLTISSLQPEDFATYYCQQANNTPPTFGQGTKVEIK
1.49 relative to IgG4

Need KIM127 (Expression relative to IgG4) of anti-Mac-1 antibody clone H4L2 (antibody, human IgG4, V domains shown) VH: QVQLVQSGAEVKKPGASVKVSCKASGYTFTNYWINWVRQAPGQRLEWMGNIYPSDTYINHNQKFKDRVTITRDTSASTAYMELSSLRSEDTAVYYCARSAYANYFDYWGQGTLVTVSS VL: EIVMTQSPATLSVSPGERATLSCRASQNIGTSIHWYQQKPGQAPRLLIYYASESISGIPARFSGSGSGTEFTLTISSLQSEDFAVYYCQQSDSWPTLTFGQGTKLEIK , thanks.
0.63 relative to IgG4

# input binder: anti-Mac-1 antibody clone 24F09 (antibody, human IgG4, V domains shown, also called 24F9) VH: EVQLVESGGGLVQPGGSLRLSCAASGFTFSSAWMSWVRQAPGKGLEWVSTIYWSGSEINYADSVKGRFTISRDNSKNTLYLQMNSLRAEDTAVYYCARSFASGESAMDVWGQGTLVTVSS VL: DIQMTQSPSSLSASVGDRVTITCRASQSISNYLAWYQQKPGKAPKLLIYDASNLQSGVPSRFSGSGSGTDFTLTISSLQPEDFATYYCQQYYSSPPTFGQGTKVEIK ; wanted: its KIM127 (Expression relative to IgG4)
1.71 relative to IgG4

Data origin, for the record: patent US20240084017A1
